# systemName: AChE (Homo sapiens)
# protocolSummary: In vitro AChE enzyme assay
# Assay type: biochemical
Could you please report measured IC50 for the items listed next?
Answers are plain numbers, in µM.

>>> measuredvalue("Cc1cccc(C(=O)C(F)(F)F)c1 [CHEMBL86868, 3′-methyl-2,2,2-trifluoroacetophenone, reference compound]")
0.35
>>> measuredvalue("O=C(c1ccccc1)C(F)(F)F")
4.61
>>> measuredvalue("CC(=O)C=Cc1ccc(C(F)(F)F)cc1")
26.3

Now consider a different compound.
Incoming: What measured IC50 goes with FC(F)(F)C(F)(F)C(F)(F)C(F)(F)C(F)(F)C(F)(F)F ?
Outgoing: 50.7

###

# systemName: AChE (Homo sapiens, UniProt P22303)
# Sequence (P22303 32-614): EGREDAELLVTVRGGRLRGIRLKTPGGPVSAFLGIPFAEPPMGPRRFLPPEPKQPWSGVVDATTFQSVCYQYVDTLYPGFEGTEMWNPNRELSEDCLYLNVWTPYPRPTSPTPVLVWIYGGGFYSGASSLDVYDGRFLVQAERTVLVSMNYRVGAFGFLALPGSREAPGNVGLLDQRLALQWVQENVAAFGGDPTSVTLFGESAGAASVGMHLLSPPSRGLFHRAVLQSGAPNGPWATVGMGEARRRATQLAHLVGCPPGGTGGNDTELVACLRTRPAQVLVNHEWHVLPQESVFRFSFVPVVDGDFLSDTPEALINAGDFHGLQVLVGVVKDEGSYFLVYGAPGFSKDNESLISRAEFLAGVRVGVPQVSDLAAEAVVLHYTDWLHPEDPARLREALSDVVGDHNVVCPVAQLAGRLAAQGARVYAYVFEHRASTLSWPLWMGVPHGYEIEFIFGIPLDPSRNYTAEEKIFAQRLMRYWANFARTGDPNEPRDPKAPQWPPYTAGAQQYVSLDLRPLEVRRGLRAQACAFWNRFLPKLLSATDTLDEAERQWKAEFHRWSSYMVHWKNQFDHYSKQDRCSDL
# protocolSummary: In vitro AChE enzyme assay
# Assay type: biochemical
# settings: Ellman method, ACTI substrate, mean ± SD, triplicate
readoutKind: pIC50
One number for each entry, as −log10 of the molar value.

Incoming: Lab note: need pIC50 with AChE (Homo sapiens, UniProt P22303) for entry COC(F)(F)C(F)(F)C(F)(F)C(F)(F)F , please look it up.
Outgoing: 4.28
